Every entry's value here was drawn from patent US20090030039A1.

- measured-target: human CXCR3 (Homo sapiens, UniProt P49682)
- Construct: expressed in transfected cells; host or cells: CHO cells (membrane preparation)
- Sequence (P49682 whole entry): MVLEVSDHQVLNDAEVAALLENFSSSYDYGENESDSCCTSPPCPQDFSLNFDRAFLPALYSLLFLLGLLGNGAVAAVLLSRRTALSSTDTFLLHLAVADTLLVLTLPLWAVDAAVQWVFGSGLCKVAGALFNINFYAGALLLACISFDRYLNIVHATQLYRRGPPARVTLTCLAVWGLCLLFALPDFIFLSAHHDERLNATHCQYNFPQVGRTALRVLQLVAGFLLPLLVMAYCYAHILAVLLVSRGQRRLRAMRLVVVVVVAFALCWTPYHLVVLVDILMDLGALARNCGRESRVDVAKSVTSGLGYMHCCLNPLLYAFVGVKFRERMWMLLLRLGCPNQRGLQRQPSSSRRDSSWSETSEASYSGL
- assay-comment: [35S]GTPγS exchange assay, CXCR3 receptor inhibition (hI-TAC-induced GTPγS-binding)
- Format: biochemical
- stated-conditions: -log IC50 (molar) inhibiting 50% of specific I-TAC-induced GTPγS-binding; membranes of human CXCR3-transfected CHO cells; read-out: pIC50 (converted)
Examples of molecules with documented IC50 follow.

molecule: O=C1CCC(c2ccccc2)(C2CCN(Cc3ccc(OCc4ccc(Cl)cc4)cc3)CC2)CN1 (stereo not shown) [Compound 148]
measured-target: human CXCR3 (Homo sapiens, UniProt P49682)
IC50 [nM]: 6310
--
molecule: Cl.O=C1CCC(c2ccc(F)cc2F)(C2CCN(Cc3ccc(Cl)c(F)c3)CC2)C(=O)N1 (single isomer, unassigned) [Compound 204]
measured-target: human CXCR3 (Homo sapiens, UniProt P49682)
IC50 [nM]: 251
--
molecule: O=C1CCC(c2cccc(C(=O)O)c2)(C2CCN(Cc3cc4cc(Br)ccc4o3)CC2)C(=O)N1 (stereo not shown) [Compound 160]
measured-target: human CXCR3 (Homo sapiens, UniProt P49682)
IC50 [nM]: 316
--
molecule: O=C1CCC(c2cccc(C(=O)O)c2)(C2CCN(Cc3ccc(Cl)cc3Cl)CC2)C(=O)N1 (stereo not shown) [Compound 73]
measured-target: human CXCR3 (Homo sapiens, UniProt P49682)
IC50 [nM]: 501
--
molecule: O=C1CCC(c2ccc(F)cc2)(C2CCN(Cc3ccc(Cl)c(F)c3)CC2)C(=O)N1 (stereo not shown) [Compound 26]
measured-target: human CXCR3 (Homo sapiens, UniProt P49682)
IC50 [nM]: 200
--
molecule: O=C1CCC(c2ccccc2)(C2CCN(Cc3ccc(Cl)cc3)CC2)C(=O)N1Cc1ccc(Cl)cc1 (stereo not shown) [Compound 189]
measured-target: human CXCR3 (Homo sapiens, UniProt P49682)
IC50 [nM]: 2000
--
molecule: O=C1CCC(c2ccc(F)cc2F)(C2CCN(Cc3ccc4nonc4c3)CC2)C(=O)N1 (stereo not shown) [Compound 207]
measured-target: human CXCR3 (Homo sapiens, UniProt P49682)
IC50 [nM]: 398
